growth inhibition listing for selected molecules.
assay: NCI Yeast Anticancer Drug Screen. Data for the rad18 strain (AID 177); conditions: S. cerevisiae rad18 mutant growth inhibition; at 100.0 µM; stronger effect = higher value
About 79,000 compounds went through this panel and 15% of them were active in at least one assay; those are over-represented in the sample as a whole.
Use % as the unit, but write only the number.

{"molecule": "CCCC(O)C1CC(C(C)C)CCC1C (stereo unspecified)", "recorded_value": 92}
{"molecule": "CN(C)c1ccc(N=Nc2ccncc2)cc1", "recorded_value": 31}
{"molecule": "O=c1[nH]c2ccc(Cl)cc2o1", "recorded_value": -21}
{"molecule": "CC(O)=NC(Cc1ccc2ccccc2c1)C(O)=NC(Cc1ccc(Cl)cc1)C(O)=NC(Cc1c[nH]c2ccccc12)C(O)=NC(CO)C(O)=NC(Cc1ccc(O)cc1)C(O)=NC(CCCN=C(N)N)C(O)=NC(CC(C)C)C(O)=NC(CCCN=C(N)N)C(=O)N1CCCC1C(O)=NC(C)C(=N)O (stereo unspecified)", "recorded_value": 35}
{"molecule": "Cc1cc2c3ccccc3c3ccccc3c2nn1", "recorded_value": 10}

Next up:
Just so you know, measured growth inhibition for CCCOC(=O)C(F)C(Br)C(=O)OCCC (stereo unspecified) came out at 98

----------
assay: NCI Yeast Anticancer Drug Screen. Data for the rad50 strain (AID 155);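 further: 0% = growth of vehicle-only cultures of the same strain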; conditions: S. cerevisiae rad50 strain growth inhibition; at 50.0 µM; stronger effect = higher value
About 79,000 compounds went through this panel and 15% of them were active in at least one assay; those are over-represented in the sample as a whole.
growth inhibition listing for selected molecules.
Use % as the unit, but write only the number.

{"molecule": "CCC(=O)c1cc(C(=O)C(=S)SC)cc(C(=O)C(=S)SC)c1", "growth inhibition / %": 85.4}
{"molecule": "COc1ccc2c(c1)n([O-])c1ccccc1[n+]2=O", "growth inhibition / %": -18.6}
{"molecule": "CCN(CC)CCNc1ccc([N+](=O)[O-])c2nc3ccccc3c(N)c12", "growth inhibition / %": 74.3}
{"molecule": "COc1cc(O)c(O)c(C(C)(C)C)c1", "growth inhibition / %": 63.7}

Next up:
Just so you know, measured growth inhibition for CC1CC[C@]2(C(=O)O)CCC3(C)C(=CC(=O)C4[C@@]5(C)CCC(=O)C(C)(C)C5CC[C@]43C)[C@@H]2[C@H]1C (stereo not given in full) came out at 90.8

----------
assay: NCI Yeast Anticancer Drug Screen. Data for the mec2-1 strain (AID 157); details: S. cerevisiae mec2-1 strain, at 33.0 µM, stronger effect = higher value
This is part of a sample that, as a whole, favours compounds with a hit. Of some 79,000 tested, about 15% had one in any assay.
experimental_readout: growth inhibition (%)
Use % as the unit, but write only the number.

{"compound": "COc1ccc2[nH]cc([C@@H]3C4CCC(C4)[C@H]3NCc3cccc(CN[C@H]4C5CCC(C5)[C@@H]4c4c[nH]c5ccc(OC)cc45)c3)c2c1", "growth inhibition (%)": 26}

Just so you know, measured growth inhibition for CC(C)(C)[Si](C)(C)OCC1CCC(n2cnc3c(NC(=O)c4ccccc4)ncnc32)O1 (stereo unspecified) came out at 0

Just so you know, measured growth inhibition for CN(C)CCCCN1c2ccccc2Sc2ccc(N=[N+]=[N-])cc21 came out at 42

Just so you know, measured growth inhibition for COc1ccc(C(=O)C(CN(C)C)CN(C)C)cc1 came out at 9

Just so you know, measured growth inhibition for CCCCC(CC)C(=O)[O][Sn]([CH2]CCC)([CH2]CCC)[O]C(=O)C(CC)CCCC (stereo unspecified) came out at 94

Just so you know, measured growth inhibition for O=C(O)c1cc2ccc(Cl)cc2c(O)c1C1=CCCCC1 came out at 40

Just so you know, measured growth inhibition for COc1cc(/C=C2\CCC/C(=C\c3ccc(O)c(OC)c3)C2=O)ccc1O came out at 0

Values compiled from PubChem BioAssay (NCI).
